target_entity: T1, human tissue factor (TF), membrane-bound on cells (human, UniProt P13726 33-295)
T1 construct: whole, on cells; also called cellular TF
assay_procedure: FACS, MDA-MB-231 cells
property_name: EC50 (nM)
Answers are plain numbers, in nM.

INSERT INTO results (binder, property_name, endpoint_value) VALUES
  ('anti-TF HuMab 013 (antibody, V domains shown, Human monoclonal antibody from HuMab mice; also called HuMab-TF-13) VH: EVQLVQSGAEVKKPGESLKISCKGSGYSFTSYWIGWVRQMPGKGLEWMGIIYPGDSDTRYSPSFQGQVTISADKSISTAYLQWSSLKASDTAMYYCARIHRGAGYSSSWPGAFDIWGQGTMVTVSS VL: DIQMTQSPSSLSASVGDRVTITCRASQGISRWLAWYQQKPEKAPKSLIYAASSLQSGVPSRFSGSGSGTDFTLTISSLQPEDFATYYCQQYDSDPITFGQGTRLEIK', 'EC50', 1.58);

Kindly consider the entry below.
Sample anti-TF HuMab 098 (antibody, V domains shown, Human monoclonal antibody from HuMab mice; also called HuMab-TF-098; HuMab-TF-98) VH: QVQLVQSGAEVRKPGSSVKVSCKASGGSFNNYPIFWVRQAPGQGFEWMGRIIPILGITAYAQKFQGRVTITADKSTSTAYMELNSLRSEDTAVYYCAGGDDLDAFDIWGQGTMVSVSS VL: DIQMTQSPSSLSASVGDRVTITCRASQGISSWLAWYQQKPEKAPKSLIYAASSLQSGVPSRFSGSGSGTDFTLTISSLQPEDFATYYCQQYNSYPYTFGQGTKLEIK ; EC50 observed: 0.99

Source: patent US20110300156A1
